# SYSTEM NAME: bovine trypsin (bovine, UniProt P00760 24-246)
# Sequence (P00760 24-246): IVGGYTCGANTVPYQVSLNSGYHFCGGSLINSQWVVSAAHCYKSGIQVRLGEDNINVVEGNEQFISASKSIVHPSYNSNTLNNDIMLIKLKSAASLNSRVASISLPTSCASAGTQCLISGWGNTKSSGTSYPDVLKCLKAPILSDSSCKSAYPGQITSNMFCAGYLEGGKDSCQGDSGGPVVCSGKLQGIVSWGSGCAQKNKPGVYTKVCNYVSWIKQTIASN
# METHOD: trypsin inhibition, BApNA substrate
Bridge positions count the residues as written; N and C are the ends. Ends that are not written are not given here.
PARAMETER: log10(IC50) (log10 of the value in nM)
Response schema: value (number) is log10 of IC50 in units of nM.

Field: example entries. Status: answers known.
[[record]]
binder = "CGAATKSIPPICFPD (disulfide 1-12 (inferred)) [BT7]"
quantitative_result = 2.36

[[record]]
binder = "CGRETKSIPPICF (disulfide 1-12 (inferred)) [BT58]"
quantitative_result = 2.08

[[record]]
binder = "CGRATKSIPPQCY (disulfide 1-12 (inferred)) [BT12]"
quantitative_result = 3.93


Please state log10(IC50) for every binder in the list that follows.
1. CSRATKSIPPICF (disulfide 1-12 (inferred)) [BT75]
2. RCTKSIPPHCF (disulfide 2-10 (inferred)) [BT62]
3. CGRATKSIPPIAFC (disulfide 1-14 (inferred)) [BT11]

Response:
[1.60, 1.85, 3.34]
